Please respond with reported IC50 for every item in the list.
- measuredOn: MAPKAPK5 (Homo sapiens, UniProt Q8IW41)
- Sequence (Q8IW41 1-471 isoform Q8IW41-2): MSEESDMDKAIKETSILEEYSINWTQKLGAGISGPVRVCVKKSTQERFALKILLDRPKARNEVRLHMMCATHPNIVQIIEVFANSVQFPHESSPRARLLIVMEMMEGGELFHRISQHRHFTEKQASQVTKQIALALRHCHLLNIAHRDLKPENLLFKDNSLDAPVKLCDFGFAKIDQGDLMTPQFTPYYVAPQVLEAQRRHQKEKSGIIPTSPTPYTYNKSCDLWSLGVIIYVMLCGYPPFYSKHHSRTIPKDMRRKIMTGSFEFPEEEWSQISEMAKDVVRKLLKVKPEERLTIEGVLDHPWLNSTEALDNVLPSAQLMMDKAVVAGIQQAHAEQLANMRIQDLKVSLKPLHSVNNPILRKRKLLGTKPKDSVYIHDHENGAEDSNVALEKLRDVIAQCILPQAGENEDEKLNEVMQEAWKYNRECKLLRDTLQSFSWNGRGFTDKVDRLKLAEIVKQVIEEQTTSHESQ

stdin: Using the record for CN1CCN(c2nnc(Nc3ncc(-c4ccc5c(c4)CNC5=O)n4ccnc34)s2)CC1 , report its IC50.
stdout: 501 to 1000 nM

stdin: Using the record for O=C1NCc2cc(-c3cnc(Nc4nc(CN5CCOCC5)cs4)c4nccn34)ccc21 , report its IC50.
stdout: 101 to 500 nM

stdin: Using the record for O=C1NCc2cc(-c3cnc(Nc4nccs4)c4nccn34)ccc21 , report its IC50.
stdout: 101 to 500 nM

stdin: Using the record for O=C1NCc2cc(-c3cnc(Nc4nc(CN5CCCCC5)cs4)c4nccn34)ccc21 , report its IC50.
stdout: 1 to 100 nM

stdin: Using the record for O=C1NCc2cc(-c3cnc(Nc4ncc(CN5CCOCC5)s4)c4nccn34)ccc21 , report its IC50.
stdout: 101 to 500 nM

stdin: Using the record for c1nc2c(Nc3nc(CN4CCCCC4)cs3)ncc(-c3cn[nH]c3)n2n1 , report its IC50.
stdout: > 1000 nM

stdin: Using the record for O=C1NCc2cc(-c3cnc(Nc4nncs4)c4nccn34)ccc21 , report its IC50.
stdout: > 1000 nM

stdin: Using the record for CC(C)N1CCN(Cc2cnc(Nc3ncc(-c4ccc5c(c4)CNC5=O)n4ccnc34)s2)CC1 , report its IC50.
stdout: 101 to 500 nM

stdin: Using the record for CN(C)Cc1cnc(Nc2ncc(-c3cn[nH]c3)n3ccnc23)s1 , report its IC50.
stdout: > 1000 nM

stdin: Using the record for CC(C)N1CCN(C(=O)c2cnc(Nc3ncc(-c4cn[nH]c4)n4ccnc34)s2)CC1 , report its IC50.
stdout: > 1000 nM

stdin: Using the record for NC(=O)c1cc(-c2cnc(Nc3nc(CN4CCCCC4)cs3)c3ncnn23)co1 , report its IC50.
stdout: 1 to 100 nM
